Test: Water solubility by batch tests at room temperature (saturated solution, headspace GC)
Assay type: physicochemical
Details: thermodynamic from solid, mixture of the two compounds 50% V/V, distilled water, no unit printed in this row (other rows gL^-1), read-out: Mixture 50% V/V (experimental water solubility of the component)

Molecule	solubility, mg/mL
ClC(Cl)C(Cl)Cl [1,1,2,2-TeCA, 1,1,2,2-Tetrachloroethane]	1.47
